Provide the recorded inhibition at 20 µM for the entries that follow.
- System tested: KRas Q61H mutant (Homo sapiens, UniProt P01116, Q61H)
- Construct: made in house
- Run description: Ras GTP binding domain inhibition assay (labeled-GTP competition, cell-free)
- Applied conditions: at 20 μM, with SOS; read-out: KRas Q61H mutant + SOS: % inh.

GET /value?item= CO[C@H]1CC[C@@H](Nc2nc(C(=O)Nc3ccccc3)nc3sccc23)C1 (racemic) &field=inhibition at 20 µM returns 0%

GET /value?item= COc1cc(Nc2nc(-c3nccn3C)nc3sc(-c4ccn(C(C)C)n4)c(C)c23)ncn1 &field=inhibition at 20 µM returns 26 to 50%

GET /value?item= Oc1nc(-c2nccn2CCOCC(F)(F)F)nc2c(-c3ccccn3)csc12 &field=inhibition at 20 µM returns 51 to 75%

GET /value?item= CO[C@H]1CN(c2nc(-c3nccn3C)nc3sc(-c4ccn(C(C)C)n4)c(C)c23)C[C@H]1OC &field=inhibition at 20 µM returns 76 to 100%
